Provenance of the data: patent US20090004214A1

Quick reference: pIC50 of the listed items.
- SYSTEM UNDER TEST: T1, HLA-DR11 molecule (DRB1*1101) (human)
- T1 construct: HLA class II heterodimer
- TEST DESCRIPTION: competitive ELISA, tracer HA 306-318
Schema: pIC50 number; meaning minus log10 of the concentration expressed in molar units.

BINDER	pIC50
LTLGEFLKLDRERAK (synthetic 15-mer) [survivin peptide 96-110]	8.15

Request: // lookup pIC50 for FCFKELEGWEPDDDP (synthetic 15-mer) [survivin peptide 59-73]
Response: 5.73

Request: // lookup pIC50 for LKLDRERAKNKIAKE (synthetic 15-mer) [survivin peptide 102-116]
Response: 5.05

Request: // lookup pIC50 for KEFEETAKKVRRAIE (synthetic 15-mer) [survivin peptide 122-136]
Response: 6.51

Request: // lookup pIC50 for KKQFEELTLGEFLKL (synthetic 15-mer) [survivin peptide 90-104]
Response: 5.63

Request: // lookup pIC50 for GEFLKLDRERAKNKI (synthetic 15-mer) [survivin peptide 99-113]
Response: 7.40

Request: // lookup pIC50 for QPFLKDHRISTFKNW (synthetic 15-mer) [survivin peptide 11-25]
Response: 6.48

Request: // lookup pIC50 for KQFEELTLGEFLKLD (synthetic 15-mer) [survivin peptide 91-105]
Response: 5.63

Request: // lookup pIC50 for PDLAQCFFCFKELEG (synthetic 15-mer) [survivin peptide 52-66]
Response: 7.04

Request: // lookup pIC50 for CAFLSVKKQFEELTL (synthetic 15-mer) [survivin peptide 84-98]
Response: 8.00

Request: // lookup pIC50 for QCFFCFKELEGWEPD (synthetic 15-mer) [survivin peptide 56-70]
Response: 6.44

Request: // lookup pIC50 for KNWPFLEGCACTPER (synthetic 15-mer) [survivin peptide 23-37]
Response: 4.43
